These data points were gathered from ChEMBL document CHEMBL1149660.

- Species: Sus scrofa
- assay_text: Inhibition of Na/K-ATPase in porcine cerebral cortex relative to ouabain
- Type: tissue-based
Hi! Just check whether Activity is below 0.3. Below gives condition met, equal or above gives condition not met.

Below, 3 compounds whose answers are already recorded.
smiles_data: CO[C@H]1[C@H](O)[C@H](O[C@H]2CC[C@@]3(C=O)[C@@H](CC[C@@H]4[C@H]3CC[C@]3(C)[C@@H](c5ccc(=O)oc5)CC[C@]43O)C2)O[C@@H](C)[C@@H]1O
class_name: condition met
//
smiles_data: C[C@]12CC[C@H]3[C@@H](CC[C@]4(O)C[C@@H](O)CC[C@]34/C=N/C34CC5CC(CC(C5)C3)C4)[C@@]1(O)CC[C@@H]2C1=CC(=O)OC1
class_name: condition not met
//
smiles_data: C[C@H]1CCC([C@@H](C)[C@H]2CC[C@@H]3[C@@H]2CC[C@H]2[C@H]3CC(=O)[C@H]3C[C@@H](O)CC[C@@]32C)=NC1
class_name: condition not met

Task item: Item C[C@H]1O[C@@H](O[C@H]2CC[C@]3(C=O)[C@H]4CC[C@]5(C)[C@@H](C6=CC(=O)OC6)CC[C@]5(O)[C@@H]4CC[C@]3(O)C2)C[C@H]2OC(C)(C)O[C@@H]12 : Activity beneath 0.3, strictly?
Reply: condition met

Task item: Item C[C@H]1O[C@@H](O[C@H]2CC[C@]3(C=O)[C@H]4CC[C@]5(C)[C@@H](C6=CC(=O)OC6)CC[C@]5(O)[C@@H]4CC[C@]3(O)C2)C[C@H](O)[C@@H]1O[C@@H]1OC[C@@H](O)[C@H](O)[C@H]1O : Activity beneath 0.3, strictly?
Reply: condition not met
